measured_target: T1, recombinant human CD40L (human, UniProt P29965 108-261, limits assumed)
T1 construct: Bought soluble recombinant protein (R&D, HEK, 6420-CL/CF); also called hCD40L; human CD40L (HEK, R&D)
T1 sequence: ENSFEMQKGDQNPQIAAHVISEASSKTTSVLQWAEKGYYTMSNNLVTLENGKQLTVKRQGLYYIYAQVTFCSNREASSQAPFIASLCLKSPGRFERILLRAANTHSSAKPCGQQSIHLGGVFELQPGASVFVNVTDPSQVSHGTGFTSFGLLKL
test_name: FACS ligand competition, biotinylated human CD40L on rhesus CD40 HEK cells
measurement_name: pIC50
In textbook form, pIC50 equals minus log to base ten of the concentration in mol/L.

Here is how some binders turned out for pIC50.
binder	measurement_name	readout_number
C0100028B02 (VHH, Monovalent Nanobody produced in P. pastoris (pAX205); Detected with anti-FLAG reagents, but the tag of the monovalent form is not spelled out; also called C01000028B02) VHH: EVQLVESGGGLVQPGGSLRLSCAASGFTLEYYAIGWFRQAPGKEREGVSCISSEGSTSYTDSVKGRFTISRDNAKNTVYLQMNSLKPEDTAVYYCATDPDRGFLGSSCDTQSHQYDYWGQGTLVTVSS	pIC50	8.34
C0100044B07 (VHH, Monovalent Nanobody; tag of the monovalent form not spelled out; also called C01000044B07) VHH: EVQLVESGGGLVQPGGRLRLSCAASGFTLDYYALAWFRQAPGKEREGVSCISSSEGSTDYADYADSVKGRFTISRDTAKNTVYLQMNNLKPEDTAVYYCATDETTFFSGSCTLSAATFGSWGQGTLVTVSS	pIC50	8.27
C0100046B03 (VHH, Monovalent Nanobody; tag of the monovalent form not spelled out; also called C01000046B03) VHH: EVQLVESGGGLVQAGGSLRLSCAASGRTPLNYHMAWFRQAPGKEREFVAAISSLLGSTDYSDSLKDRFTISRDNAKATLYLRMNNLKPEDTAVYYCAARETTHYSTSDRVNEMRHYDYWGQGTLVTVSS	pIC50	7.55

Here is the next item to consider.
Challenge: Requested read-out: pIC50. Entry: C0100029C10 (VHH, Monovalent Nanobody; tag of the monovalent form not spelled out; also called C01000029C10) VHH: EVQLVESGGGLVQPGGSLRLSCAASGFTLDYYALGWFRQAPGKEREGVSCISSTESSDGSTYYADSVKGRFTISRDSAKNTVYLQMNSLKPEDTAVYYCATDQTLFGVCRGIATPDPGFWGQGTLVTVSS
Response given: 7.91
